The origin of these recorded values is the array DNA melting data of Ke et al. (doi:10.1101/2024.01.08.574731).

Experiment: folding enthalpy; higher = less favourable; fluorescence melt of hairpins on a sequencing array, two-state fit
Settings: sodium 0.088 M
// classify(record): look up folding enthalpy in ranges Low = under -40 kcal/mol, Medium = from -40 kcal/mol up to -20 kcal/mol, High = -20 kcal/mol and over

Here's what some known entries look like.
| polymer.sequence | assigned.class |
| --- | --- |
| GCTGACCGAAAGGTGAGC (((.(((....))).))) | Medium |
| GTGAGTGGAAACGCTTAC ((.((.(....).)).)) | High |
| GATCGGGTGCCCGATC ((((((....)))))) | Medium |
| GCGCTGGGAAACCAGTGC ((.((((....)))).)) | Low |
| GGAGTTGGAAACGACTCC (((((.(....).))))) | Medium |
| GCGGCGGGAAACCACCGC ((((.((....)).)))) | Low |
| GCAAGCGAAAGCTACTGC ((((((....)))..))) | High |
| GCTCCAGGAAACTGAAGC (((.(((....))).))) | Medium |

Which of the defined bands does the recorded folding enthalpy of GCTGCTGGAAACAACAGC ((((.((....)).)))) sit within?
Medium

Tag the class for GTGGACGCGAAAGCGCAC (((..(((....))))))
High

GET /class?item= GCCTGGCGAAAGCTAAGC ((.(.((....)).).))
High

Lab log: GATCGTTGCAACGATC ((((((....)))))) — assign folding enthalpy category
Low

Which bin, given its folding enthalpy, does GATCGTTGAACGATC ((((((...)))))) occupy?
Medium

Dear colleague, I would appreciate it if you could identify the bin for GTATGACGAAAGTCGTAC (((.(((....))).))) and reply at your convenience.
Medium

Form field 'band' for GTTTGAACGAAAGTTAAC (((..(((....))))))
High

Form field 'band' for GGTGCCGAAAGGCCACC ((((((....))).)))
High

Each sequence maps to one class by folding enthalpy. Which class for GGTCGAGGAAACTCGGCC ((.((((....)))).)) ?
Low

====

Assay: folding enthalpy; higher = less favourable; fluorescence melt of hairpins on a sequencing array, two-state fit
Details: sodium 0.088 M
result.type: folding enthalpy (kcal/mol)
Give just the number in kcal/mol; leave the unit off.

Recorded folding enthalpy, per entry:
| polymer.sequence | folding enthalpy / kcal/mol |
| --- | --- |
| GTGCATCGAAAGATTCAC (((.(((....))).))) | -30.1 |
| GGACTCCGAAAGGACTCC (((.(((....))).))) | -21.1 |
| GATCCAACTGTGGATC ((((((....)))))) | -32.6 |
| GGTGCTCGAAAGAGAACC (((.(((....))).))) | -48.3 |
| GTTGGGGGAAACCTCGAC ((.(.((....)).).)) | -23.5 |

folding enthalpy for GATCGATTGTTCGATC ((((((....)))))) ?
-37.4

Requested read-out: folding enthalpy. Entry: GTGCGAGGAAACTCGTAC ((.((((....)))).))
-31.6

I would be grateful if you could share the reported folding enthalpy for GCTACACGAAAGTGAGC (((.(((....)))))) .
-19.2

GET /values?readout=folding enthalpy&item= GTCCAGGGAAACTTGGAC (((((.(....).)))))
-22.3

Could you tell me which folding enthalpy is on file for GTCGACACGAAAGTGGAC (((..(((....)))))) ?
-13.9

Fill in: folding enthalpy of GATCGTTCGTACGATC ((((((....)))))) is ___
-44.1

Endpoint output: folding enthalpy of CGTGACGGAAACGTGACG (((.(((....))).))) . Value?
-26.2

Which folding enthalpy value belongs to GTTTGTGAAAACAAAC ((((((....)))))) ?
-37.6
